Each recorded value in this set is attributed to PubChem BioAssay.

Experiment: binders of probe aFSTL3 on microarray, primary screen, stem cell growth factor project, biochemical, small-molecule microarray, fluorescence 635/667 (AID 1064);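 further: measures binding of the biotinylated anti-FSTL3 antibody to printed compounds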
Details: higher = more signal
Quick reference: composite z-score of the listed items.
The response must contain the number and no unit.

Past entries and their recorded results:
molecule	composite z-score
CC(C)C[C@@H]1NC(=O)[C@H]2C[C@@H](C(=O)NCCCCCC[N+](C)(C)C)[C@@H](c3cccc(OCCO)c3)N2C1=O	-0.183
O=C1NCC(=O)N2[C@@H]1C[C@@H](C(=O)O)[C@H]2c1ccc(O)cc1	0.257
O=C1OCC=C[C@H]2OC34C=CCN(Cn5nnc6ccccc65)C(=O)[C@H]3N(CCCCCCO)C(=O)[C@@H]4[C@@H]12 (stereo not given in full)	0.492
COC(=O)[C@@]1(Cc2ccccc2)[C@H]2c3cc(C(=O)N4CCCC4)[nH]c3C[C@H]2CN1C(=O)c1ccccc1	0.718

Sure, the documented composite z-score for COc1cc2c(cc1OC)CN(C(=O)[C@H]1[C@@H]3C(=O)O[C@@H](c4ccccc4)[C@@H](c4ccccc4)N3[C@@H](c3ccc(OCCO)cc3)[C@]13C(=O)Nc1ccc(C#CCCO)cc13)CC2 is -0.0463

Sure, the documented composite z-score for O=C1O[C@H](c2ccccc2)[C@H](c2ccccc2)N2[C@H]1[C@@H](C(=O)O)[C@]1(C(=O)Nc3ccccc31)[C@H]2c1ccc(O)cc1 is 1.17

Sure, the documented composite z-score for COc1ccc(NC(=O)O[C@H]2[C@H](OC(=O)Nc3ccc4c(c3)OCO4)[C@@H](OC(=O)Nc3ccc4c(c3)OCO4)[C@@H](OC)O[C@@H]2CO)cc1 is 0.157

Sure, the documented composite z-score for CN(C)CCCNC(=O)[C@@]1(c2ccc([N+](=O)[O-])cc2)CC(=O)N(CC23CC4CC(CC(C4)C2)C3)[C@@H]1c1ccc(CO)cc1 is 1.47

Sure, the documented composite z-score for CCOC(=O)C1=C[C@@H](c2ccccc2)N(S(=O)(=O)c2ccc(C)cc2)[C@H]1c1cccc(Cl)c1 is 0.266

Sure, the documented composite z-score for COc1cc(CO)cc(I)c1O[C@H]1C=C(C(=O)NCCO)C[C@@H](N(Cc2ccc(F)cc2)C(=O)C2CCCO2)[C@@H]1O (stereo not given in full) is -0.625

Sure, the documented composite z-score for Cc1ccc(F)cc1S(=O)(=O)N[C@@H]1CCN(Cc2ccc(OC(C)C)cc2)C1 is -0.0929

Sure, the documented composite z-score for C[C@@H]1ON(c2ccc(C(=O)OC(C)(C)C)cc2)[C@H](c2ccc(Br)cc2)[C@H]1C(=O)N1C(=O)OC[C@H]1Cc1ccccc1 is -0.312

Sure, the documented composite z-score for C=C(C(=O)CC[C@H](OC(C)=O)c1cccc(OCCO)c1)C(C)C is 0.125

Sure, the documented composite z-score for COC(=O)[C@@]1(Cc2ccc(OC)cc2)[C@H]2c3cc(C(=O)N(C)C)n(Cc4nc5ccccc5[nH]4)c3C[C@H]2CN1C(=O)c1ccccc1 is 0.0732

Sure, the documented composite z-score for C=C[C@H](COC(C)=O)NS(=O)(=O)c1ccc(Br)cc1 is -0.127

* * *

Assay: small-molecule microarray binders of probe aDKK1, primary screen, biochemical, biotinylated probe, 635/667 nm fluorescence (AID 1099);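 further: score merges 667nm spot fluorescence with signal to noise across triplicate slides; reference of the scale not given here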
Conditions: higher = more signal
Decision: composite z-score >= 0.5 yields Condition met, all other cases yield Condition not met.

[ask] Check if composite z-score >= 0.5 (inclusive). Item: Cc1c(NC(=O)/C(C#N)=C/C=C/c2ccc(N(C)C)cc2)c(=O)n(-c2ccccc2)n1C
[reply] Condition met

[ask] Check if composite z-score >= 0.5 (inclusive). Item: COc1ccc([Si](C)(C)[C@H]2[C@H](CCn3cc([C@H](O)c4ccccc4)nn3)O[C@@]3(C(=O)N(Cc4cccc(N5C(=O)c6cccc7cccc5c67)c4)c4ccccc43)[C@@H]2C)cc1
[reply] Condition not met

[ask] Check if composite z-score >= 0.5 (inclusive). Item: O=C1C2C=CC(C(O)c3cc(C(F)(F)F)cc(C(F)(F)F)c3)N(Nc3ccc([N+](=O)[O-])cc3)C2C(=O)N1c1ccccc1 (configuration not stated)
[reply] Condition not met

[ask] Check if composite z-score >= 0.5 (inclusive). Item: Cc1ccc(C(C)CC(O)C2C=CC3C(=O)N(c4ccccc4)C(=O)C3N2Nc2ccc(C(C)C)cc2)o1 (configuration not stated)
[reply] Condition met

[ask] Check if composite z-score >= 0.5 (inclusive). Item: CCOC(=O)[C@H]1C/C=C/C[C@H](C(=O)OCC)C(=O)O[C@H]2[C@@H](OC)O[C@H](CO)[C@@H](OC(=O)Nc3ccc(OC)cc3)[C@@H]2OC1=O
[reply] Condition not met

[ask] Check if composite z-score >= 0.5 (inclusive). Item: O=C(O)[C@H](Cc1ccccc1)n1cc(-c2ccccn2)nn1
[reply] Condition not met

[ask] Check if composite z-score >= 0.5 (inclusive). Item: CC(CO)N1C(=O)[C@@H]2C3C(=O)OCCC/C=C\[C@H]3OC23C=CCN(Cn2nnc4ccccc42)C(=O)[C@@H]13 (some centres not stated)
[reply] Condition not met
